# assay-target: UniProt:Q7Z2W7
# protocol-text: Antagonist activity at human TRPM8 receptor expressed in human T-REx-293 cells assessed as inhibition of menthol-induced 45calcium influx treated 5 mins before menthol challenge measured after 5 mins
# Assay type: functional, cell-based, HEK293
# run-conditions: read-out: IC50
Overview of reported log10 IC50 across a group of molecules:
In plain terms, each number is the log10 of measured IC50 in µM.

These solved cases illustrate the format of a correct answer.
The value of log10 IC50 measured for the molecule `Cc1[nH]c2ccc(OCc3ccccc3)cc2c1CCN` turned out to be 0.18

// log10 IC50 lookup, molecule = `NCCc1c[nH]c2ccc(F)cc12` , result: 1.09

Entry under test: `NCCc1c[nH]c2ccc(Cl)cc12` . Its log10 IC50 was 1.33

Others:
log10 IC50 reading for `CN(C)CCc1c[nH]c2ccc(OCc3ccccc3)cc12` : 0.75

Lookup result for `NCCc1c[nH]c2ccc(OCc3ccccc3)cc12` ; measured log10 IC50: -0.47

The reported log10 IC50 of the molecule `NCCc1c[nH]c2ccc(Br)cc12` was 1.36

Consider `NCCc1c[nH]c2c(OCc3ccccc3)cccc12` . Its measured log10 IC50 is 0.52

Lab note: `CCOC(=O)NCCc1c[nH]c2ccc(OCc3ccccc3)cc12` gave log10 IC50 of 1.33

The value of log10 IC50 measured for the molecule `COc1ccc2[nH]cc(CCN)c2c1` turned out to be 1.09

====

Here, each record is paired with measured IC50 data.
# assay-target: Transient receptor potential cation channel subfamily M member 8 (Homo sapiens, UniProt Q7Z2W7)
# Sequence (Q7Z2W7 whole entry): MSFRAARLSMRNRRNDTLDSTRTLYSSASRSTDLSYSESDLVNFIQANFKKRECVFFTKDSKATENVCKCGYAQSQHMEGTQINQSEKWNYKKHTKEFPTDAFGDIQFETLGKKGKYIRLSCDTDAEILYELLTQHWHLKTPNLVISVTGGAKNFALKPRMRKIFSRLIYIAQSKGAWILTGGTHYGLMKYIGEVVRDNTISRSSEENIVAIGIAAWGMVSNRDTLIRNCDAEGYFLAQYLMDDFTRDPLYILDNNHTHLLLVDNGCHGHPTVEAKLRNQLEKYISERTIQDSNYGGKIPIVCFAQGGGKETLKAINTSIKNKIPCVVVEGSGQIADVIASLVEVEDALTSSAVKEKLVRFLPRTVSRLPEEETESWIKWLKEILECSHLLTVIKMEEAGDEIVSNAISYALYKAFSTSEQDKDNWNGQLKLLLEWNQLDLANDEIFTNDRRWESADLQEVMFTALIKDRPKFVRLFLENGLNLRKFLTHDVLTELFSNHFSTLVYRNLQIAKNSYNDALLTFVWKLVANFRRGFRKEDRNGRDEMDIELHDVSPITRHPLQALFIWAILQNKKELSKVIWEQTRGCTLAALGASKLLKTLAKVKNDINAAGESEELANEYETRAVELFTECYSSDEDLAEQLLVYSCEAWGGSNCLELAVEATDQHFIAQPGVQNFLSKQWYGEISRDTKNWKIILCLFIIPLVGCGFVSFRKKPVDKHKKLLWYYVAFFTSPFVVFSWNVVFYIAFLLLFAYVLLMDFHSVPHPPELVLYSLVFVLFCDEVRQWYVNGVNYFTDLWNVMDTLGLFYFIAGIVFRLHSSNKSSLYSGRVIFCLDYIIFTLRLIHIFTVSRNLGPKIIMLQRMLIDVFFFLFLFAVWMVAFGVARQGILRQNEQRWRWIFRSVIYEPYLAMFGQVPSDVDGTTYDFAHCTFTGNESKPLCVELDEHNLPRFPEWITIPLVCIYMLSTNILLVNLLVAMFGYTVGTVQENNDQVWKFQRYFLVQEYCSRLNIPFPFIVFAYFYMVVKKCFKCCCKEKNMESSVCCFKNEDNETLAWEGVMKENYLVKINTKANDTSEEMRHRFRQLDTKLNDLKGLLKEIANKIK
# protocol-text: Antagonist activity at human TRPM8 receptor expressed in human T-REx-293 cells assessed as inhibition of icilin-induced 45calcium influx treated 5 mins before icilin challenge measured after 5 mins
# Assay type: functional, cell-based, HEK293
Numbers only; they are read as µM.

Reported IC50 of `NCCc1c[nH]c2c(OCc3ccccc3)cccc12` : 8.93

Documented IC50 of `COc1ccc2[nH]cc(CCN)c2c1` : 11.6

IC50 recorded for this compound, `NCCc1c[nH]c2ccc(F)cc12` , is 13.1

# compound `NCCc1c[nH]c2ccc(OCc3ccccc3)cc12` ; its IC50 = 0.66

Briefly, IC50 measured for `NCCc1c[nH]c2ccc(Br)cc12` : 30.4

Recorded IC50 (compound `CCOC(=O)NCCc1c[nH]c2ccc(OCc3ccccc3)cc12` ): 28.8

Next:
So, `Cc1[nH]c2ccc(OCc3ccccc3)cc2c1CCN` ? Its IC50 was 2.36

Please fill in: IC50 reported for `NCCc1c[nH]c2ccc(Cl)cc12` = 32.2

Data point: `CN(C)CCc1c[nH]c2ccc(OCc3ccccc3)cc12` ; IC50 = 5.96
